study.target: human adenosine A2B receptor (Homo sapiens (Human), UniProt P29275)
Sequence (P29275 whole entry): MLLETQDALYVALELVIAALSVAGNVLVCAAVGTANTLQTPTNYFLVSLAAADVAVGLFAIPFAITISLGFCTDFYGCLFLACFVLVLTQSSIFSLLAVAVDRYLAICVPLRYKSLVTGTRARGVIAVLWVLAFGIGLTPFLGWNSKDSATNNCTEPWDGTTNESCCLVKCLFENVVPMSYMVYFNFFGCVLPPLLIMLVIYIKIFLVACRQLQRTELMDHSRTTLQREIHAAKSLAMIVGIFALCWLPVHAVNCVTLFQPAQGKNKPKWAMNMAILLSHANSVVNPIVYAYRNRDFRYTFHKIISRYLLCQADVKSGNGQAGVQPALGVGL
experiment.description: Adenosine A2B Receptor Cyclic AMP GS Assay
Type: cell-based
condition.description: A2B_cAMP_EC50 (nM), HEK-293 cells expressing human A2B, agonist NECA 12 nM
EC50 values by entry

These solved cases illustrate the format of a correct answer.
INSERT INTO measurements (compound, readout_value) VALUES
  ('Cc1cc(-c2c(-c3cccc(C#N)c3F)nc(N)c3nc(C(O)c4c(F)cccc4F)nn23)cc(C)n1 (stereo not drawn)', '10 to 100 nM'),
  ('CS(=O)(=O)CCn1cc(-c2cccc(F)c2Cc2nc3c(N)nc(-c4cccc(C#N)c4F)cn3n2)cn1', '< 10 nM'),
  ('N#Cc1cccc(-c2nc(N)c3nc(Cc4c(F)cccc4CN4CC(C(=O)O)C4)nn3c2-c2ccncn2)c1', '10 to 100 nM'),
  ('N#Cc1cccc(-c2cn3nc(C(O)c4c(F)cccc4CN4CCN5C(=O)CCC5C4)nc3c(N)n2)c1F (racemic)', '10 to 100 nM'),
  ('N#Cc1cccc(-c2nc(N)c3cc(Cc4c[nH]c5cccnc45)nn3c2-c2ccncn2)c1', '10 to 100 nM'),
  ('N#Cc1cccc(-c2nc(N)c3nc(S(=O)(=O)c4ccccc4)nn3c2-c2ccncn2)c1', '10 to 100 nM'),
  ('Cc1ncoc1-c1c(-c2cccc(C#N)c2)nc(N)c2nc(C(NCCO)c3c(F)cccc3F)nn12 (stereo not drawn)', '< 10 nM'),
  ('N#Cc1cccc(-c2nc(N)c3nc(Cc4c(F)cccc4CN4CCNC(=O)C4)nn3c2-c2ccncn2)c1', '10 to 100 nM');

Query (compound): `Cc1ncoc1-c1c(-c2cccc(C#N)c2)nc(N)c2nc(Cc3c(F)cccc3CN3CC[C@@](C)(C(=O)O)C3)nn12` ; field requested: EC50
10 to 100 nM

// EC50 lookup, key: `COc1cccc(Cc2nc3c(N)nc(-c4cccc(C#N)c4)c(-c4ccc(=O)n(C)n4)n3n2)n1`
10 to 100 nM

So what does the record say about EC50 for `CCN(CC)C(=O)c1cc2c(N)nc(-c3cccc(C#N)c3)c(-c3ccncn3)n2n1` ?
< 10 nM

Given the compound `Cn1cc(-c2c(-c3cccc(C#N)c3)nc(N)c3nc(Cc4ccccn4)nn23)ccc1=O` , what is its reported EC50?
10 to 100 nM

Consider the compound shown here: `N#Cc1cccc(-c2nc(N)c3cc(Nc4ccccc4)nn3c2-c2ccncc2)c1` What is its recorded EC50?
10 to 100 nM

Would you mind telling me what EC50 value was observed for `N#Cc1cccc(-c2nc(N)c3nc(Cc4ncccc4-c4cnco4)nn3c2-c2ccncn2)c1` ?
< 10 nM

Data request, read-out EC50, for `Cc1cnccc1-c1c(-c2cccc(C#N)c2)nc(N)c2nc(Cc3ccccn3)nn12`
< 10 nM

* * *

Entries and their Ki
study.target: Adenosine A2A (Homo sapiens (Human), UniProt P29274)
Sequence (P29274 whole entry): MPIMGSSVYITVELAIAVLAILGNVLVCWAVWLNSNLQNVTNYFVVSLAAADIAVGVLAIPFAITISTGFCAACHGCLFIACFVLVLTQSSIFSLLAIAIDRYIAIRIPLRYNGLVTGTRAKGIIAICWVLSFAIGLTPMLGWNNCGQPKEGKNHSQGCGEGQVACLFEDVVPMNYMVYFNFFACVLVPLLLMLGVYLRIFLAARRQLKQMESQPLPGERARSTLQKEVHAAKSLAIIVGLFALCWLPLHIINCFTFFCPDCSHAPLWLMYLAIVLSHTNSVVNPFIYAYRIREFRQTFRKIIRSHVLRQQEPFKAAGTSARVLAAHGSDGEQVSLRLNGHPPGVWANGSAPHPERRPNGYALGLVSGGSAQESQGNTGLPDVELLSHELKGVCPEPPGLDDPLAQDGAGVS
experiment.description: A2A Tag-Lite HTRF assay
Format: binding

INSERT INTO measurements (compound, readout_label, readout_value) VALUES
  ('N#Cc1cccc(-c2nc(N)c3nc(C(O)c4c(F)cccc4CN4CCCC4)nn3c2-c2ccncn2)c1 (single isomer, unassigned)', 'Ki', '< 0.01 µM');

What does the record list as Ki for N#Cc1cccc(-c2nc(N)c3nc(C(O)c4c(F)cccc4F)nn3c2-c2ccncn2)c1 (single isomer, unassigned) ?
< 0.01 µM

Item under review: Cc1cnccc1-c1c(-c2cccc(C#N)c2)nc(N)c2nc(C(O)c3c(F)cccc3F)nn12 (single isomer, unassigned) . Reported Ki?
< 0.01 µM

Returns the measured Ki for the input compound. Input: `CCNC(=O)c1cc2c(N)nc(-c3cccc(C#N)c3)c(C3(C(F)(F)F)CC3)n2n1`
0.01 to 0.1 µM

* * *

Catalogue of molecules with associated EC50
study.target: human adenosine A2B receptor (Homo sapiens (Human), UniProt P29275)
experiment.description: Adenosine A2B Receptor Cyclic AMP GS Assay
Format: cell-based
condition.description: A2B_cAMP_EC50 (nM), HEK-293 cells expressing human A2B, agonist NECA 12 nM

INSERT INTO measurements (molecule, study_target, readout_label, readout_value) VALUES
  ('Cc1n[nH]cc1-c1c(-c2cccc(C#N)c2)nc(N)c2nc(C(O)c3c(F)cccc3F)nn12 (single isomer, unassigned)', 'human adenosine A2B receptor (Homo sapiens (Human), UniProt P29275)', 'EC50', '< 10 nM'),
  ('N#Cc1cccc(-c2cn3nc(Cc4c(F)cccc4-c4cnn(CC(=O)N5CC(O)C5)c4)nc3c(N)n2)c1F', 'human adenosine A2B receptor (Homo sapiens (Human), UniProt P29275)', 'EC50', '< 10 nM'),
  ('CCCn1nccc1-c1c(-c2cccc(C#N)c2)nc(N)c2cc(C(=O)NCC)nn12', 'human adenosine A2B receptor (Homo sapiens (Human), UniProt P29275)', 'EC50', '10 to 100 nM'),
  ('N#Cc1cccc(-c2nc(N)c3nc(C(O)c4ccccc4F)nn3c2-c2ccncn2)c1 (single isomer, unassigned)', 'human adenosine A2B receptor (Homo sapiens (Human), UniProt P29275)', 'EC50', '< 10 nM'),
  ('N#Cc1cccc(-c2nc(N)c3nc(C(O)c4ccccc4)nn3c2-c2ccncn2)c1 (stereo not shown)', 'human adenosine A2B receptor (Homo sapiens (Human), UniProt P29275)', 'EC50', '10 to 100 nM'),
  ('Cn1cc(-c2cccnc2Cc2nc3c(N)nc(-c4cccc(C#N)c4)c(-c4ccncn4)n3n2)cn1', 'human adenosine A2B receptor (Homo sapiens (Human), UniProt P29275)', 'EC50', '10 to 100 nM');

Proceed to the following item.
Data request, read-out EC50, for Cc1cnccc1-c1c(-c2cccc(C#N)c2)nc(N)c2nc(C(O)c3c(F)cccc3F)nn12 (single isomer, unassigned)
< 10 nM

* * *

study.target: human adenosine A2B receptor (Homo sapiens (Human))
experiment.description: Adenosine A2B Receptor Cyclic AMP GS Assay
Type: cell-based
condition.description: A2B_cAMP_EC50 (nM), HEK-293 cells expressing human A2B, agonist NECA 12 nM
readout.label: EC50

INSERT INTO measurements (molecule, readout_value) VALUES
  ('Cc1ncoc1-c1c(-c2cccc(C#N)c2)nc(N)c2nc(C(O)c3ccccn3)nn12 (racemic)', '< 10 nM');

Item N#Cc1cccc(-c2nc(N)c3nc(C(O)c4c(F)cccc4F)nn3c2-c2cnco2)c1 (single isomer, unassigned) has what recorded EC50?
< 10 nM

Which EC50 reading was recorded for the molecule `Cn1nccc1-c1cccc(F)c1Cc1nc2c(N)nc(-c3cccc(C#N)c3)c(-c3ccncn3)n2n1` ?
< 10 nM

Could you tell me which EC50 is on file for `CCNC(=O)c1cc2c(N)nc(-c3cccc(C#N)c3)c(-c3ccc(=O)n(C)c3)n2n1` ?
100 to 1000 nM

* * *

study.target: human adenosine A2B receptor (Homo sapiens (Human))
experiment.description: Adenosine A2B Receptor Cyclic AMP GS Assay
Format: cell-based
condition.description: A2B_cAMP_EC50 (nM), HEK-293 cells expressing human A2B, agonist NECA 12 nM
readout.label: EC50

See these solved cases before continuing.
INSERT INTO measurements (molecule, readout_label, readout_value) VALUES
  ('N#Cc1cccc(-c2nc(N)c3nc(Cc4cccn5ccnc45)nn3c2-c2ccncn2)c1', 'EC50', '< 10 nM'),
  ('N#Cc1cccc(-c2nc(N)c3nc(C(O)c4cccc(F)c4F)nn3c2-c2ccncn2)c1 (single isomer, unassigned)', 'EC50', '< 10 nM');

Form field: EC50 recorded for `Cn1ncc(NCc2cccc(F)c2Cc2nc3c(N)nc(-c4cccc(C#N)c4)c(-c4ccncn4)n3n2)n1` with human adenosine A2B receptor (Homo sapiens (Human)) (enter value)
< 10 nM

* * *

Readings of pKi for the listed compounds
study.target: Adenosine A2A (Homo sapiens (Human))
experiment.description: A2A Tag-Lite HTRF assay
Format: binding
condition.description: Tag-Lite Adenosine A2A labeled cells, fluorescent ligand 12.5 nM; read-out: A2A_Ki
pKi: −log10 of the molar value.

Look over these answered cases.
INSERT INTO results (compound, study_target, readout_label, readout_value) VALUES
  ('CCn1nncc1-c1c(-c2cccc(C#N)c2)nc(N)c2cc(Cc3ccccn3)nn12', 'Adenosine A2A (Homo sapiens (Human))', 'pKi', '> 8.00'),
  ('COc1cccc(Cc2nc3c(N)nc(-c4cccc(C#N)c4)c(-c4ccc(=O)n(C)n4)n3n2)n1', 'Adenosine A2A (Homo sapiens (Human))', 'pKi', '> 8.00');

Return reported pKi; argument: Cn1cnc(S(=O)(=O)N2CCCC2Cc2nc3c(N)nc(-c4cccc(C#N)c4F)cn3n2)c1 (stereo not shown)
> 8.00

Which pKi is reported for this compound? `C[C@@]1(C(=O)O)CCN(Cc2cccc(F)c2Cc2nc3c(N)nc(-c4cccc(C#N)c4)c(-c4ccncn4)n3n2)C1`
> 8.00

What does the record list as pKi for N#Cc1cccc(-c2nc(N)c3cc(C(O)c4ccccc4F)nn3c2-c2ccncn2)c1 (racemic) [Example 23] ?
> 8.00

Consider the compound `N#Cc1cccc(-c2nc(N)c3nc(Cc4c(F)cccc4CN[C@H]4CCNC4=O)nn3c2-c2ccncn2)c1` and give its measured pKi.
> 8.00

Give its pKi value. Item: `Cn1cc(-c2cccnc2Cc2nc3c(N)nc(-c4cccc(C#N)c4)c(-c4ccncn4)n3n2)cn1`
> 8.00

Param item = `Cn1cc(-c2cccc(F)c2Cc2nc3c(N)nc(-c4cccc(C#N)c4F)cn3n2)cn1` ; retrieve measured pKi.
> 8.00

Data request, read-out pKi, for `N#Cc1cccc(-c2nc(N)c3nc(Cc4ncccc4-c4cnco4)nn3c2-c2ccncn2)c1`
> 8.00

Using the record for N#Cc1cccc(-c2nc(N)c3nc(C(O)c4c(F)cccc4F)nn3c2-c2ccc3nncn3c2)c1 (racemic) , report its pKi.
> 8.00

What pKi value was documented for this compound, `CCn1nccc1-c1c(-c2cccc(C#N)c2)nc(N)c2cc(Cc3ccccn3)nn12` ?
> 8.00

What value of measured pKi is listed for `Cc1ncoc1-c1c(-c2cccc(C#N)c2)nc(N)c2nc(Cc3ccccn3)nn12` ?
> 8.00

Reported pKi, compound `N#Cc1cccc(-c2nc(N)c3nc(Oc4ccccc4F)nn3c2-c2ccncn2)c1` : ____
> 8.00

Which pKi value belongs to `CS(=O)(=O)CCn1cc(-c2cccc(F)c2Cc2nc3c(N)nc(-c4cccc(C#N)c4F)cn3n2)cn1` ?
> 8.00

May I ask what pKi has been recorded for `N#Cc1cccc(-c2nc(N)c3ncnn3c2-c2ccc3nccn3c2)c1` ?
> 8.00

Look up pKi for this compound: `CCc1ncoc1-c1c(-c2cccc(C#N)c2)nc(N)c2nc(Cc3ccccn3)nn12`
> 8.00
